Experiment: Phase 1 dose escalation study: plasma pharmacokinetics
Format: in vivo, human
Details: female, human, plasma, oral; 500 mg, Day 7, N = 11; read-out: tmax, Min, Max
Where a name gives a salt, the structure may show the parent alone.
recordedEndpoint: Tmax

Reported Tmax for CCNCCc1ccc(CN(CC)c2cc(OC)ccc2[C@@H]2CCc3cc(O)ccc3C2)cc1 [RAD1901, dihydrochloride] : what is it? 2 to 6.02 h
